study target: D(2) dopamine receptor (Homo sapiens) (UniProt P14416)
Sequence (P14416 whole entry, looked up): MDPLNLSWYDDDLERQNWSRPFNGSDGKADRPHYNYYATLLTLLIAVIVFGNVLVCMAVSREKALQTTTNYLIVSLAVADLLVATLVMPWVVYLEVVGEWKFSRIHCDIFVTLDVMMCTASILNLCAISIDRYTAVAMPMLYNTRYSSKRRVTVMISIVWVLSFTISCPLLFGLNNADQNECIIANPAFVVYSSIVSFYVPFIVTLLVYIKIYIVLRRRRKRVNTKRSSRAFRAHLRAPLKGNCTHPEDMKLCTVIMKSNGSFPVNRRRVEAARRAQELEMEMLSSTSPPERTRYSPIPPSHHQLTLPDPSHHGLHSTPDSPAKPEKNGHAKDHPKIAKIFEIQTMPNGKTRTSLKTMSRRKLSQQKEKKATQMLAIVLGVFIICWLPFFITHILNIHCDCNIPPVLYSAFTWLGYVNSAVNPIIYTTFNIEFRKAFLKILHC
assay comment: Dopamine D2 receptor (DRD2) small molecule antagonists, cell-based qHTS assay (AID 1963595)
condition details: HEK293-DRD2 cAMP HTRF antagonist mode; series mostly up to 92.4 µM
Inconclusive results are not listed. Activity calls are given as the source filed them. Calls follow the shape of the dose curve; as a rule, active = well fitted inhibition curve with a large enough effect in the signal ratio in the repeat runs, with a control signal flat; inconclusive = weak or mixed curves, or effect the other way; inactive = flat fitted curve, though single readings scatter; the % refers to the signal ratio.
Log the outcome using a class from yes (1) (active), no (0) (inactive)

In [3]: df
Out[3]:
                                  compound  category
0  O=S(c1cc(Cl)cc(Cl)c1O)c1cc(Cl)cc(Cl)c1O    no (0)

Lookup: Per the records of this test, what outcome belongs to CN(C)CCCN1c2ccccc2Sc2ccc(C(F)(F)F)cc21 ?
Found: yes (1)

Lookup: Follow-up entry: C=CC(=O)Nc1cc2c(Nc3ccc(F)c(Cl)c3)ncnc2cc1OCCCN1CCOCC1
Found: no (0)

Lookup: Follow-up entry: CCCCCC/C=C/C=O
Found: no (0)

Lookup: Follow-up entry: Cc1ccc(C(=O)O)cc1[N+](=O)[O-]
Found: no (0)

Lookup: Follow-up entry: C(=C(c1ccccc1)c1ccccc1)c1ccccc1
Found: no (0)

Lookup: Follow-up entry: CNC(=S)NN
Found: no (0)

Lookup: Follow-up entry: CCC(C)(C)C1CCC(O)CC1 (centres undefined)
Found: no (0)

Lookup: Follow-up entry: O=C(O)c1ccc(O)c(O)c1
Found: no (0)

Lookup: Follow-up entry: O=C(O)CCc1nc2ccccc2[nH]1
Found: no (0)

Lookup: Follow-up entry: COC(=O)NCCC[Si](OC)(OC)OC
Found: no (0)

Lookup: Follow-up entry: O=C(O)CO
Found: no (0)

Lookup: Follow-up entry: CC(C)CCOC(=O)c1ccc(N(C)C)cc1
Found: no (0)

Lookup: Follow-up entry: CCCN(C1CCN(C(=O)C2CCNCC2)CC1)[C@@H]1CCc2ccc(OC)cc2C1
Found: no (0)

---

study target: Beta-2 adrenergic receptor (Homo sapiens) (UniProt P07550)
Sequence (P07550 whole entry, looked up): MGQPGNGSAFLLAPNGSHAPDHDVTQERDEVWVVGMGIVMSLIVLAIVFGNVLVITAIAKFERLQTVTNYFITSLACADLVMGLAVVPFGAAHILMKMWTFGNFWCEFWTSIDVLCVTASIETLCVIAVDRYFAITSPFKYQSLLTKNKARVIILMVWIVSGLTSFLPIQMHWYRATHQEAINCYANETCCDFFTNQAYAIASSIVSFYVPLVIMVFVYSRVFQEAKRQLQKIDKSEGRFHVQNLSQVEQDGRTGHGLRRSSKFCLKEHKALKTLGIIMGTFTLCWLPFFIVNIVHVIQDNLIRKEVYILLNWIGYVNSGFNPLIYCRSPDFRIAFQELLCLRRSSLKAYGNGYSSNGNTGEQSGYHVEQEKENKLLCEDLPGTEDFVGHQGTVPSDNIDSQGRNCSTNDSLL
assay comment: Adrenergic beta2 receptor (ADRB2) small molecule antagonists, cell-based qHTS assay (AID 1963592); also: % is scaled to controls: 0 for no effect and ±100 for the full control effect; nearly all actives have a fitted effect of over 50% in size
condition details: CHO-ADRB2 cells, isoproterenol-stimulated cAMP HTRF ratio, 0.5 h; series mostly up to 92.4 µM
Records with an inconclusive call do not appear. Active and inactive are the calls of the source. The call rests on the fitted dose curve.
Log the outcome using a class from 1 = active, 0 = inactive

Here are 3 compounds together with their reported answers.
>>> df
                                   compound  category
0                O=C(O)/C=C(\CC(=O)O)C(=O)O         0
1    O=C1c2ccccc2C(=O)c2cc(S(=O)(=O)O)ccc21         0
2  C=C(C)C1CCC(C)(O)CC1 (stereo unspecified)         0

Lookup: Per the records of this test, what outcome belongs to O=C(OCCc1ccccc1)c1ccccc1 ?
Found: 0

Lookup: Follow-up entry: CN(CCCN1c2ccccc2CCc2ccccc21)CC(=O)c1ccc(Cl)cc1
Found: 0

Lookup: Follow-up entry: CC1=C(C(=O)O)N2C(=O)[C@@H](NC(=O)[C@H](N)C3=CCC=CC3)[C@H]2SC1
Found: 0

Lookup: Follow-up entry: CN(C)CCCO[C@@H]1[C@H]2OC(C)(C)O[C@H]2O[C@@H]1C(O)CO (stereo partly specified)
Found: 0

Lookup: Follow-up entry: Cc1c(C(=O)O)cccc1[N+](=O)[O-]
Found: 0

Lookup: Follow-up entry: Cc1ccc([N+](=O)[O-])cc1Cl
Found: 0

Lookup: Follow-up entry: NC(Cc1c[nH]c2ccccc12)C(=O)O (stereo unspecified)
Found: 0

Lookup: Follow-up entry: Fc1ccccc1
Found: 0

Lookup: Follow-up entry: C=CC(=O)OCCCCCCOC(=O)C=C
Found: 0

Lookup: Follow-up entry: CCCC(C)CC (stereo unspecified)
Found: 0

Lookup: Follow-up entry: CCN(CC)C(=O)c1ccc(O)c(OC)c1
Found: 0
